Molecular target: T1, recombinant, soluble human ASGR-1 (human, UniProt P07306 62-291)
T1 construct: biotinylated in the binning assay; also called soluble huASGR-1; Soluble ASGR-1 (Amgen)
T1 sequence: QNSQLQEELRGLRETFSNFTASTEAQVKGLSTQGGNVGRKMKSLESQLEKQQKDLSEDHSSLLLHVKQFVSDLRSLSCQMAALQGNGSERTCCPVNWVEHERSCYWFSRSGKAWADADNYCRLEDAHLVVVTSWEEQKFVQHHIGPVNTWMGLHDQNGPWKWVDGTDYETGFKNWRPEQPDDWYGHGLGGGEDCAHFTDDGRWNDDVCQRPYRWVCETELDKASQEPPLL
Assay: Octet BLI dissociation, pH 5.6 minus calcium
Reported endpoint: % Change Compared to pH 7.4 + Calcium (%)
Report only the number, with the unit % understood.

Binder: 196F4 (antibody, V domains shown, hybridoma mAb) VH: EVQLLESGGGLVQPGGSLRFSCAASGFTFSSCAMTWVRQAPGKGLEWVSAISGSGGSTYYADSVKGRFTISRDNSKNTLYLQMNSLRAEDTAVYYCAKVGGLTGSYYYYGMDVWGQGTTVTVSS VL: DFQMIQSPSSLSASVGDRVTITCRASQRIHSYLNWYQQKPGKAPKLLIYTASSLQGGVPSRFSGSGSGTDFTLTISSLQPEDFATYYCQQSYGSPLTFGGGTKVEIK
Quantity unit: %
Readout number: -6
--
Binder: 227C1 (antibody, V domains shown, hybridoma mAb) VH: QVQLVQSGAEVKKPGASVKVSCKASGYTFTGYYTHWVRQAPGQGLEWMGWINPYSGGTNYAQKFQGRVTMTRDTSISTAYMELSRLRFDDTAVYYCARDWGGYSSYYYGMDVWGQGTTVTVSS VL: DIVMTQTPLSLSVTPGQPASISCKSSQSLLHSDGKTFLYWYLQKPGQPPQLLIYEISNRFSGVPDRFSGSGSGTDFTLKISRVEAEDVGIYYCMQSTQLPRTFGQGTKVEIK
Quantity unit: %
Readout number: 73
--
Binder: 7G4 (antibody, V domains shown, hybridoma mAb) VH: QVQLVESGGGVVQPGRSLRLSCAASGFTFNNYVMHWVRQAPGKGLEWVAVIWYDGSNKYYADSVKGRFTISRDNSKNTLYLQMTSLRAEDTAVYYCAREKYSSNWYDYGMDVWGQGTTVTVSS VL: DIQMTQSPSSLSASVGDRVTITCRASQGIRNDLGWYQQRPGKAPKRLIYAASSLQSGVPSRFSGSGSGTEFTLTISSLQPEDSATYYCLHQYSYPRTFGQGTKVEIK
Quantity unit: %
Readout number: 7
--
Binder: 74H7 (antibody, V domains shown, hybridoma mAb) VH: QVQLQQWGAGLLKPSEPLSLTCAVYGGSFSGPYWSWIRQPPGKGLEWIGEINHSGSTNYNPSLKSRVTISVDTSKNQFSLKLTSVTAADTAVYYCARDYGGLDVWGQGTTVTVSS VL: ELVLTQSPGTLSLSPGERATLSCRASQNIYSSYLAWYQQKPGQAPRLLIYGASSRATGIPDRFSGSGSGTDFTLTISRLEPEDFAVYCCQQYESSPWTFGQGTKVEIK
Quantity unit: %
Readout number: 1

Specify reported % Change Compared to pH 7.4 + Calcium for the binder shown: 218G4 (antibody, V domains shown, hybridoma mAb) VH: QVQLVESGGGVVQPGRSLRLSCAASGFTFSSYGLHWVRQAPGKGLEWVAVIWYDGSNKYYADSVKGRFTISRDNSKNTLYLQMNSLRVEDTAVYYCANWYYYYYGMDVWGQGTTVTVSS VL: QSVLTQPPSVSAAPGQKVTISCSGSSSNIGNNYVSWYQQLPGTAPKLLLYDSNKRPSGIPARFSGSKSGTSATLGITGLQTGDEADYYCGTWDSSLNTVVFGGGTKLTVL
0
